Measured CDC EC50 values are reported for all entries that follow.
Biological target: human Claudin18.2 (human)
Assay: cell-based or functional assay
Hi! Could you send only the number? It should be in µg/mL, unit omitted.

Consider the reported CDC EC50 for these binders:
{"columns": ["Binder", "CDC EC50 (µg/mL)"],
 "data": [
  ["262C7C10 (antibody, V domains shown) VH: QAYLQQSGAELVRSGASVKMSCKASGYTFTNYNIHWVKQTPGQGLEWIGYIYPGNGGNYYNQKFKGKATLTADTSSITAYMQISSLTSEDSAVYFCARDYYGNSFAYWGQGTLVTVSA VL: DIVMTQSPSSLTVTAGEKVTMNCKSSQSLLNSGNQKNYLTWYQQKPGQPPKLLIYWASTRESGVPDRFTGSGSGTDFTLTISSVQAEDLAIYYCQNDYYYPLTFGAGTKLELK", 0.331],
  ["267B2C5 (antibody, V domains shown) VH: QVQLKESGPGLVAPSQSLAITCTVSGFSLTTYGVSWVRQPPGKGLEWLGVIWGDGSTHYHSALISRLSIRKDNSKSQVFLKVNSLQTDDTATYYCGKPGRGNAMDYWGQGTSVTVSS VL: DIVMTQSPSSLTVTAGEKVTMSCKSSQSLLNSGNQKNYLTWYQQKPGQSPKLLIYWASTRESGVPDRFTGSGSGTDFTLTISSVQAEDLAVYYCQNDYIYPLTFGGGTTLELK", 1.21],
  ["275B2G2 (antibody, V domains shown) VH: EVMLVESGGGLVKPGGSLKLSCAASGFTFRDYTMSWVRQTPEKRLEWVATSIIGGTYTYYPDSVKGRFTISRDNVKNTLYLQMSSLRSEDTAMYYCSRLGRGNAMDYWGQGTSVTVSS VL: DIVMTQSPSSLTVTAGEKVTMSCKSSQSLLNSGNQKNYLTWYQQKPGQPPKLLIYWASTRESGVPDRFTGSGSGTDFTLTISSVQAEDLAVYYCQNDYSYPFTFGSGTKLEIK", 1.66],
  ["243F6D2 (antibody, V domains shown) VH: QAYLQQSGAELVRSGASVKMSCRASGYTFTSHNMHWVKQTPGQGLEWIGYIYPGNGGTYYNQKFKGKATLTADTSSSTAYMQISSLTSEDSAVYFCARDYYGNSFVYWGQGTLVTVSA VL: DVVMTQSPSSLTEKTGEKVSMSCKSSQSLLNSGNQKNYLTWYQQKPGQPPKLLIYWASTRESGVPDRFTGSGSGTDFTLTISSLQTEDLAVYYCQNNYRYPFTFGAGTKLELK", 2]
]}

Please give the documented CDC EC50 of 243B4F2 (antibody, V domains shown) VH: QAYLQQSGAELVRSGASVKMSCKASGYTFTSHNLHWVKQTPGQGLEWIGYIYPGNGNTNYNQKFKGKATLTADTSSSTAYMQISSLTSEDSAVYFCTRDYYGNSFAYWGQGTLVTVSA VL: DIVMTQSPSSLTEKAGERVSMSCKSSQSLFNSGNQKNYLTWYQQKPGQPPKLLIYWASTRESGVPDRFTGSGSGTDFTLTISSVQAEDLAVYYCQNNYWFPFTFGAGTKLELK
1.05
